protocolText: physchem
conditionNotes: water, 70 °C
endpointLabel: solubility

// query Output solubility of CSCC[C@H](N)C(=O)O
// result > 90 mg/mL
